Test system: Staphylococcus aureus
Assay: Antibacterial activity against methicillin-resistant Staphylococcus aureus 1024004-2 clinical isolate after 20 to 24 hrs by two-fold microdilution method
Assay type: functional
value.kind: MIC (µg/mL)
Write the value in µg/mL as a bare number.

Q: What value of measured MIC is listed for CN1CCN(CCCCCCOC(=O)c2c3c(n4cc(Br)ccc24)C(=O)c2ncccc2C3=O)CC1 ?
A: 0.25

Q: Can you check CN(C)CCCCCOC(=O)c1c2c(n3cc(Br)ccc13)C(=O)c1ncccc1C2=O next?
A: 0.5

---

// reported MIC for each item listed
Tested on: Staphylococcus aureus
Experiment: Antibacterial activity against methicillin-resistant Staphylococcus aureus GLH14 clinical isolate after 20 to 24 hrs by two-fold microdilution method
Type: functional
Write the value in µg/mL as a bare number.

structure.smiles	assay.system	unit.abbreviation	MIC
CN1CCN(CCCCCCOC(=O)c2c3c(n4cc(Br)ccc24)C(=O)c2ncccc2C3=O)CC1	Staphylococcus aureus	µg/mL	0.063
O=C1c2cccnc2C(=O)c2c1c(C(=O)OCCCCCCN1CCCCC1)c1ccc(Br)cn21	Staphylococcus aureus	µg/mL	0.063
CN(C)CCCCCOC(=O)c1c2c(n3cc(Br)ccc13)C(=O)c1ncccc1C2=O	Staphylococcus aureus	µg/mL	0.5

Q: Give MIC (Staphylococcus aureus) of the following molecule: O=C1c2cccnc2C(=O)c2c1c(C(=O)OCCCCCN1CCOCC1)c1ccc(Br)cn21
A: 0.031

Q: Can you check O=C1c2cccnc2C(=O)c2c1c(C(=O)OCCCCN1CCOCC1)c1ccc(Br)cn21 next?
A: 0.5

---

Tested on: Streptococcus pyogenes
Test: Antibacterial activity against Streptococcus pyogenes ATCC 19615 after 20 to 24 hrs by two-fold microdilution method
Type: functional
// reported MIC for each item listed
Write the value in µg/mL as a bare number.

Use these answered entries as a reference point.
molecule	recorded.value
O=C1c2cccnc2C(=O)c2c1c(C(=O)OCCO)c1ccc(Br)cn21	8
CN1CCN(CCCOC(=O)c2c3c(n4cc(Br)ccc24)C(=O)c2ncccc2C3=O)CC1	16
COP(=O)(CCOC(=O)c1c2c(n3cc(Br)ccc13)C(=O)c1ncccc1C2=O)OC	16
O=C1c2cccnc2C(=O)c2c1c(C(=O)OCCCN1CCCC1)c1ccc(Br)cn21	8
O=C1c2cccnc2C(=O)c2c1c(C(=O)OCCCCCCN1CCCC1)c1ccc(Br)cn21	4

Q: What value of measured MIC is listed for O=C1c2cccnc2C(=O)c2c1c(C(=O)OCCCN1CCCCC1)c1ccc(Br)cn21 ?
A: 16

Q: Can you check CN1CCN(CCOC(=O)c2c3c(n4cc(Br)ccc24)C(=O)c2ncccc2C3=O)CC1 next?
A: 8

Q: Can you check O=C1c2cccnc2C(=O)c2c1c(C(=O)OCC(O)CO)c1ccc(Br)cn21 (centres undefined) next?
A: 16

Q: Can you check CN1CCN(CCCCCCOC(=O)c2c3c(n4cc(Br)ccc24)C(=O)c2ncccc2C3=O)CC1 next?
A: 2

Q: Can you check CN1CCN(CCCCOC(=O)c2c3c(n4cc(Br)ccc24)C(=O)c2ncccc2C3=O)CC1 next?
A: 8

Q: Can you check O=C1c2cccnc2C(=O)c2c1c(C(=O)OCCCCCN1CCOCC1)c1ccc(Br)cn21 next?
A: 8

Q: Can you check CN(C)CCCOC(=O)c1c2c(n3cc(Br)ccc13)C(=O)c1ncccc1C2=O next?
A: 16

Q: Can you check O=C1c2cccnc2C(=O)c2c1c(C(=O)OCCCO)c1ccc(Br)cn21 next?
A: 8

Q: Can you check O=C1c2cccnc2C(=O)c2c1c(C(=O)OCCN1CCCC1)c1ccc(Br)cn21 next?
A: 8

Q: Can you check O=C1c2cccnc2C(=O)c2c1c(C(=O)OCCCCCCN1CCCCC1)c1ccc(Br)cn21 next?
A: 2

Q: Can you check O=C1c2cccnc2C(=O)c2c1c(C(=O)OCCCCCN1CCCC1)c1ccc(Br)cn21 next?
A: 8

Q: Can you check O=C1c2cccnc2C(=O)c2c1c(C(=O)OCCCCN1CCOCC1)c1ccc(Br)cn21 next?
A: 4

Q: Can you check CN1CCN(CCCCCOC(=O)c2c3c(n4cc(Br)ccc24)C(=O)c2ncccc2C3=O)CC1 next?
A: 8

---

// reported MIC for each item listed
Tested on: Staphylococcus aureus
Experiment: Antibacterial activity against methicillin-resistant Staphylococcus aureus 109016 clinical isolate after 20 to 24 hrs by two-fold microdilution method
Type: functional

Use these answered entries as a reference point.
structure.smiles	MIC
CN(C)CCCCCOC(=O)c1c2c(n3cc(Br)ccc13)C(=O)c1ncccc1C2=O	0.25 µg/mL
O=C1c2cccnc2C(=O)c2c1c(C(=O)OCCCCN1CCOCC1)c1ccc(Br)cn21	0.5 µg/mL
O=C1c2cccnc2C(=O)c2c1c(C(=O)OCCCCCN1CCOCC1)c1ccc(Br)cn21	≤ 0.0078 µg/mL
CN1CCN(CCCCCCOC(=O)c2c3c(n4cc(Br)ccc24)C(=O)c2ncccc2C3=O)CC1	0.031 µg/mL
O=C1c2cccnc2C(=O)c2c1c(C(=O)OCCCCCCN1CCCCC1)c1ccc(Br)cn21	0.031 µg/mL

# context switch: different compound, same MIC
Q: What value of measured MIC is listed for O=C1c2cccnc2C(=O)c2c1c(C(=O)OCCCCCCN1CCOCC1)c1ccc(Br)cn21 ?
A: ≤ 0.0078 µg/mL

---

// reported solubility thermodynamic at 4 h for each item listed
Test: Solubility of the compound in water at 25 degC measured after shaking for 4 hrs by UV method
Format: physicochemical
Details: water
Write the value in µg/mL as a bare number.

structure.smiles	solubility thermodynamic at 4 h, µg/mL
CN1CCN(CCCCCCOC(=O)c2c3c(n4cc(Br)ccc24)C(=O)c2ncccc2C3=O)CC1	2060

# context switch: different compound, same solubility thermodynamic at 4 h
Q: What value of measured solubility thermodynamic at 4 h is listed for O=C1c2cccnc2C(=O)c2c1c(C(=O)OCCCCCCN1CCCCC1)c1ccc(Br)cn21 ?
A: 1980

---

Test system: Streptococcus pyogenes
Assay: Antibacterial activity against Streptococcus pyogenes ATCC 19615 after 20 to 24 hrs by two-fold microdilution method
Format: functional
value.kind: MIC (µg/mL)
Write the value in µg/mL as a bare number.

structure.smiles	unit.abbreviation	MIC
O=C1c2cccnc2C(=O)c2c1c(C(=O)OCCCCCN1CCCCC1)c1ccc(Br)cn21	µg/mL	8
CN(C)CCCCCOC(=O)c1c2c(n3cc(Br)ccc13)C(=O)c1ncccc1C2=O	µg/mL	2
CN(C)CCCCCCOC(=O)c1c2c(n3cc(Br)ccc13)C(=O)c1ncccc1C2=O	µg/mL	8
CN(C)CCCCOC(=O)c1c2c(n3cc(Br)ccc13)C(=O)c1ncccc1C2=O	µg/mL	16
CCOC(=O)c1c2c(n3cc(Br)ccc13)C(=O)c1ncccc1C2=O	µg/mL	4
O=C1c2cccnc2C(=O)c2c1c(C(=O)OCCCCN1CCCC1)c1ccc(Br)cn21	µg/mL	8
O=C1c2cccnc2C(=O)c2c1c(C(=O)OCCCCCCN1CCOCC1)c1ccc(Br)cn21	µg/mL	2
O=C1c2cccnc2C(=O)c2c1c(C(=O)OCCCN1CCOCC1)c1ccc(Br)cn21	µg/mL	16

Q: What value of measured MIC is listed for O=C1c2cccnc2C(=O)c2c1c(C(=O)OCCCCN1CCCCC1)c1ccc(Br)cn21 ?
A: 16

---

System: Staphylococcus aureus
Test: Antibacterial activity against methicillin-resistant Staphylococcus aureus 110414 clinical isolate after 20 to 24 hrs by two-fold microdilution method
Assay type: functional
value.kind: MIC

Use these answered entries as a reference point.
structure.smiles	assay.system	recorded.value
O=C1c2cccnc2C(=O)c2c1c(C(=O)OCCCCCN1CCOCC1)c1ccc(Br)cn21	Staphylococcus aureus	0.031 µg/mL
CN1CCN(CCCCCCOC(=O)c2c3c(n4cc(Br)ccc24)C(=O)c2ncccc2C3=O)CC1	Staphylococcus aureus	0.125 µg/mL
O=C1c2cccnc2C(=O)c2c1c(C(=O)OCCCCN1CCOCC1)c1ccc(Br)cn21	Staphylococcus aureus	0.5 µg/mL

Q: What value of measured MIC is listed for O=C1c2cccnc2C(=O)c2c1c(C(=O)OCCCCCCN1CCCCC1)c1ccc(Br)cn21 ?
A: 0.031 µg/mL

Q: Can you check O=C1c2cccnc2C(=O)c2c1c(C(=O)OCCCCCCN1CCOCC1)c1ccc(Br)cn21 next?
A: ≤ 0.0078 µg/mL

Q: Can you check CN(C)CCCCCOC(=O)c1c2c(n3cc(Br)ccc13)C(=O)c1ncccc1C2=O next?
A: 0.5 µg/mL

---

Test system: Staphylococcus aureus
Assay: Antibacterial activity against methicillin-resistant Staphylococcus aureus 10844 clinical isolate after 20 to 24 hrs by two-fold microdilution method
Assay type: functional
value.kind: MIC

structure.smiles	MIC
O=C1c2cccnc2C(=O)c2c1c(C(=O)OCCCCCCN1CCCCC1)c1ccc(Br)cn21	0.063 µg/mL
CN(C)CCCCCOC(=O)c1c2c(n3cc(Br)ccc13)C(=O)c1ncccc1C2=O	0.25 µg/mL
CN1CCN(CCCCCCOC(=O)c2c3c(n4cc(Br)ccc24)C(=O)c2ncccc2C3=O)CC1	≤ 0.0078 µg/mL
O=C1c2cccnc2C(=O)c2c1c(C(=O)OCCCCN1CCOCC1)c1ccc(Br)cn21	0.5 µg/mL
O=C1c2cccnc2C(=O)c2c1c(C(=O)OCCCCCCN1CCOCC1)c1ccc(Br)cn21	≤ 0.0078 µg/mL

Q: What value of measured MIC is listed for O=C1c2cccnc2C(=O)c2c1c(C(=O)OCCCCCN1CCOCC1)c1ccc(Br)cn21 ?
A: ≤ 0.0078 µg/mL
